B1: HDV Ribozyme (parent)
chain: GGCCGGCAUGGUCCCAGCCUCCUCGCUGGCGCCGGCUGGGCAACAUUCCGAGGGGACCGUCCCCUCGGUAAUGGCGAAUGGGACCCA

Variants of: B1
method: self-cleavage, relative activity (ratio to wild type); higher = more cleavage; co-transcriptional
Label n if self-cleavage falls below 0.6; label y in every other case.

residue change | answer label
A77U C86G | y
C24G G73U | n
C14G A43C | n
G76U C84U | y
C13A C84U | n
A42U C57G | n
C75A A87U | n
C15U U23G | n
C24G G52U | n
C22G G74C | n
A42U A87U | n
C32A U47G | n
A8C U65G | y
U37C A77G | y
C24G G80C | n
C30U G82C | n
G1A G34C | n
C44G A83U | n
C26A C32A | n
G6U C26A | n

meta.source: the RNAGym collection of RNA variant scans (doi:10.7554/elife.80360)
